Values were extracted from patent US11173145B2.

Parameter: IC50. Scope: all listed entries.
Target system: IDO1 (Homo sapiens, UniProt P14902)
Construct: endogenous in cells
Sequence (P14902 whole entry): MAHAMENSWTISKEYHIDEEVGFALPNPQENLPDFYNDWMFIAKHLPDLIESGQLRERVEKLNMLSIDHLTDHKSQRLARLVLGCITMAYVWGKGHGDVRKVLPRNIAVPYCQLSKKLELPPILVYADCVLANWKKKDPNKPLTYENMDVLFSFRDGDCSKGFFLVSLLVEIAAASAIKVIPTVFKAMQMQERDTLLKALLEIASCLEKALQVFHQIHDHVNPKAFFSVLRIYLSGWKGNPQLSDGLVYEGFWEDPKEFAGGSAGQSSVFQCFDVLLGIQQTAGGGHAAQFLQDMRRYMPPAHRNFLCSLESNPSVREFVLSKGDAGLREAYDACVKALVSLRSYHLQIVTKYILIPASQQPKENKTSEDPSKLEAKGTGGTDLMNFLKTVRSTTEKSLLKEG
Procedure text: IDO1 cell-based assay (HeLa cells, IFNgamma-induced, N-formylkynurenine/L-tryptophan by RFMS)
Condition: 10 ng/mL IFNgamma, 24 hours
Observed property: IC50

INSERT INTO assay_data (molecule, observed_property, observed_value) VALUES
  ('CC(NC(=O)c1ccc(C#N)cc1)[C@H]1[C@@H]2C[C@@H](Oc3cnnc4ccccc34)C[C@@H]21 (some centres unmarked) [Compound 135]', 'IC50', '200 to 2000 nM'),
  ('CCC(NC(=O)c1ccc(Cl)cc1)[C@H]1[C@@H]2C[C@@H](n3ccnc3C)C[C@@H]21 (some centres unmarked) [Compound 201]', 'IC50', '< 200 nM'),
  ('CCC(NC(=O)c1ccc(Cl)cc1)[C@H]1[C@@H]2C[C@@H](Oc3cccc(C)n3)C[C@@H]21 (some centres unmarked) [Compound 40]', 'IC50', '< 200 nM'),
  ('CC(C(=O)Nc1ccc(Cl)c(F)c1)[C@H]1[C@@H]2C[C@@H](n3cnc4cc(F)c(F)cc43)C[C@@H]21 (some centres unmarked) [Compound 345]', 'IC50', '< 200 nM'),
  ('CCC(NC(=O)c1ccc(Cl)cc1)[C@@H]1[C@H]2C=C(c3cncc(C(F)(F)F)c3)C[C@H]21 (some centres unmarked) [Compound 254]', 'IC50', '< 200 nM'),
  ('O=C(Nc1ccc(Cl)cc1)[C@H]1[C@@H]2CN(c3ncnc4ccc(F)cc34)C[C@@H]21 [Compound 252]', 'IC50', '> 5000 nM'),
  ('COc1ccc(C(=O)NC(C)[C@H]2[C@@H]3C[C@@H](Oc4ncnc5ccc(F)cc45)C[C@@H]32)cn1 (some centres unmarked) [Compound 115]', 'IC50', '< 200 nM'),
  ('O=C(Nc1ccc(Cl)cc1)N[C@H]1[C@@H]2C[C@@H](Oc3ccnc4ccc(F)cc34)C[C@@H]21 [Compound 10]', 'IC50', '< 200 nM'),
  ('CCC(NC(=O)c1ccc(Cl)cc1)[C@H]1[C@@H]2C[C@@H](Oc3cnnc4ccccc34)C[C@@H]21 (some centres unmarked) [Compound 138]', 'IC50', '< 200 nM'),
  ('CN(C(=O)Cc1ccc(Cl)cc1)[C@H]1[C@@H]2C[C@@H](Oc3cnnc4ccccc34)C[C@@H]21 [Compound 86]', 'IC50', '2000 to 5000 nM'),
  ('CCC(NC(=O)c1ccc(Cl)cc1)[C@H]1[C@@H]2C[C@@H](N3CCOC3=O)C[C@@H]21 (some centres unmarked) [Compound 185]', 'IC50', '200 to 2000 nM'),
  ('CCC(NC(=O)c1ccc(Cl)cc1)[C@H]1[C@@H]2C[C@@H](NC(=O)c3ccc4ccccc4n3)C[C@@H]21 (some centres unmarked) [Compound 118]', 'IC50', '< 200 nM'),
  ('CC[C@@H](NC(=O)c1ccc(Cl)cc1)[C@H]1[C@@H]2C[C@@H](Nc3cc(Cl)ccc3[N+](=O)[O-])C[C@@H]21 [Compound 284]', 'IC50', '< 200 nM'),
  ('CCC(NC(=O)c1ccc(Cl)cc1)[C@H]1[C@@H]2C[C@@H](N3CCOCC3)C[C@@H]21 (some centres unmarked) [Compound 73]', 'IC50', '2000 to 5000 nM');
